# system-under-test: T1, Aβ pathology (plaques) in human AD brain tissue (human, UniProt P05067 672-713)
# T1 construct: Native tissue deposits, heterogeneous; also called tissue Aβ pathology; Aβ plaques
# T1 sequence (P05067 672-713): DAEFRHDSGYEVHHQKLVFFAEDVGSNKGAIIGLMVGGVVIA
# procedure-summary: IHC on frozen human AD brain sections, brain AD 11-97; % stained area against antibody concentration (0.03-9 µg/ml)
observable: Area Under Curve

Q: GET /values?readout=Area Under Curve&item= h2931 (antibody, V domains shown, also called PB-0576) VH: EVQLLESGGGLVQPGGSLRLSCAASGFTFSNFGMSWVRQAPGKGLEWVASVRSGSGRTYYSDNVKGRFTISRDNSKNTLYLQMNSLRAEDTAVYYCVRYDHYTGTSDYWGQGTLVTVSS VL: DVVMTQSPLSLPVTLGEPASISCKSSQSLLDYDGKTYLNWLLQKPGQSPQRLIYRVTNRDTGVPDRFSGSGSGTDFTLKISRVEAEDVGVYYCWQGTHFPRSFGQGTKVEIK
Result: 47.7

Q: Entry to check: h2831 (antibody, V domains shown, Humanized IgG mAb; also called PB-0575) VH: EVQLLESGGGLVQPGGSLRLSCAASGFTFSNFGMSWVRQAPGKGLEWVASVRSGSGRTYYSDNVKGRFTISRDNSKNTLYLQMNSLRAEDTAVYYCVRYDHYSGTSDYWGQGTLVTVSS VL: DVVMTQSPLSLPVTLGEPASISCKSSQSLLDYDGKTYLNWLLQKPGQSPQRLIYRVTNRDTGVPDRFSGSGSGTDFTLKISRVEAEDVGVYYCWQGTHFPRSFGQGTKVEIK
Result: 49.2

Q: Another binder: h2726 (antibody, V domains shown, Humanized IgG mAb; Only the variable domains are tied to the construct; also called PB-0573) VH: EVQLLESGGGLVQPGGSLRLSCAASGFTFSNYGMSWVRQAPGKGLEWVASIRSGSGRTYYSDNVKGRFTISRDNSKNTLYLQMNSLRAEDTAVYYCVRYDHYSGSSDYWGQGTLVTVSS VL: DVVMTQSPLSLPVTPGEPASISCKSSQSLLDYDGKTYLNWLLQKPGQSPQRLIYKVSNRDSGVPDRFSGSGSGTDFTLKISRVEAEDVGVYYCWQGTHFPRTFGQGTKVEIK
Result: 50.2

Q: Would you kindly repeat that for h2731 (antibody, V domains shown, Humanized IgG mAb; Only the variable domains are tied to the construct) VH: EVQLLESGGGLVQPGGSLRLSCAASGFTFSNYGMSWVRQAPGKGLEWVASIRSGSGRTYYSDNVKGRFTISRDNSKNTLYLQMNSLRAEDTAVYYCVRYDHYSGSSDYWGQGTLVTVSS VL: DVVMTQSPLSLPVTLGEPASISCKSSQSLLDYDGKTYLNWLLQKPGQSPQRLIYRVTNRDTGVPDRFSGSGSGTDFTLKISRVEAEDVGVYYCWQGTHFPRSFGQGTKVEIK ?
Result: 50.6
